Test system: SW1990 pancreatic adenocarcinoma cells [homozygous G12D]
assay_method_text: Cancer cell line proliferation (CellTiter-Glo), SW1990
Assay type: cell-based
experimental_parameters: Homo sapiens, 72 hr treatment, read-out: SW1990 CTG (EC50)
pEC50: −log10 of the molar value.
measurement_name: pEC50

Short answer on SW1990 pancreatic adenocarcinoma cells [homozygous G12D] for C#Cc1c(F)ccc2cc(O)cc(-c3ncc4c(N5CC6CCC(C5)N6)nc(OCC5(CN6CCN(CC7CN(Cc8ccc9c(c8)CN(C(=O)c8cc(C(C)C)c(O)cc8O)C9)C7)CC6)CC5)nc4c3F)c12 , pEC50: > 7.00

Short answer on SW1990 pancreatic adenocarcinoma cells [homozygous G12D] for C#Cc1cccc2cc(O)cc(-c3ncc4c(N5CC6CCC(C5)N6C(C)=O)nc(OCC5(CN6CCN(CC7CCN(Cc8ccc(-n9c(C(=O)NC(C)C(F)(F)F)nnc9-c9cc(C(C)C)c(O)cc9O)cc8)CC7)CC6)CC5)nc4c3F)c12 (stereo not drawn) , pEC50: > 7.00

Short answer on SW1990 pancreatic adenocarcinoma cells [homozygous G12D] for C#Cc1c(F)ccc2cc(O)cc(-c3ncc4c(N5CC6CCC(C5)N6)nc(OCc5ccc6c(c5)CN(C(=O)c5cc(C(C)C)c(O)cc5O)C6)nc4c3F)c12 , pEC50: < 6.00

---

Tested on: AGS gastric carcinoma cells [heterozygous G12D]
assay_method_text: Cancer cell line proliferation (CellTiter-Glo), AGS
Type: cell-based
experimental_parameters: Homo sapiens, 72 hr treatment, read-out: AGS CTG (EC50)
pEC50: −log10 of the molar value.
Please go through the items and note down their pEC50.

For C#Cc1cccc2cc(O)cc(-c3ncc4c(N5CC6CNC(C6)C5)nc(OCC5(CN6CCN(CC7CCN(C(=O)C8CCN(Cc9ccc%10c(c9)CN(C(=O)c9cc(C(C)C)c(O)cc9O)C%10)CC8)CC7)CC6)CC5)nc4c3F)c12 (stereo not drawn) [Compound 136] the molecule record lists pEC50 as 6.00 to 7.00

For CC(C)c1cc(-c2nnc(C(=O)NC(C)C(F)(F)F)n2-c2ccc(CN3CCN(C[C@H]4C[C@@H](COc5nc(N6CC7CCC(C6)N7)c6cnc(-c7cc(O)cc8ccccc78)c(F)c6n5)N(C)C4)CC3)cc2)c(O)cc1O (stereo partly drawn) [Compound 118] the molecule record lists pEC50 as > 7.00

For C#Cc1c(F)ccc2cc(O)cc(-c3ncc4c(N5CC6CCC(C5)N6)nc(OC[C@H]5CCCN5Cc5ccc6c(c5)CN(C(=O)c5cc(C(C)C)c(O)cc5O)C6)nc4c3F)c12 [Compound 204] the molecule record lists pEC50 as 6.00 to 7.00

For C#Cc1c(F)ccc2cc(O)cc(-c3ncc4c(N5CC6CCC(C5)N6)nc(OCC5(CN6CCN(C7CCN(Cc8ccc(-n9c(C(=O)NC(C)C(F)(F)F)nnc9-c9cc(C(C)C)c(O)cc9O)cc8)CC7)CC6)CC5)nc4c3F)c12 (stereo not drawn) [Compound 160] the molecule record lists pEC50 as > 7.00

For C#Cc1cccc2cc(O)cc(-c3ncc4c(N5CC6CCC(C5)N6)nc(OC[C@@H]5C[C@H](CN6CCN(Cc7ccc8c(c7)CN(C(=O)c7cc(C(C)C)c(O)cc7O)C8)CC6)CN5C)nc4c3F)c12 [Compound 113] the molecule record lists pEC50 as 6.00 to 7.00

For C#Cc1c(F)ccc2cc(O)cc(-c3ncc4c(N5CC6CCC(C5)N6)nc(OCC5(CN6CCC(N7CCN(Cc8ccc(-n9c(C(=O)NC(C)C(F)(F)F)nnc9-c9cc(C(C)C)c(O)cc9O)cc8)CC7)CC6)CC5)nc4c3F)c12 (stereo not drawn) [Compound 181] the molecule record lists pEC50 as > 7.00

For C#Cc1c(F)ccc2cc(O)cc(-c3nc(OC)c4c(N5CC6CCC(C5)N6)nc(OCC5(CN6CCC(C7CCN(Cc8ccc9c(c8)CN(C(=O)c8cc(C(C)C)c(O)cc8O)C9)CC7)CC6)CC5)nc4c3F)c12 [Compound 186] the molecule record lists pEC50 as > 7.00

For C#Cc1cccc2cc(O)cc(-c3ncc4c(N5CC6CCC(C5)N6)nc(OCC5(CN6CCN(CC7CCN(Cc8ccc(-n9c(C(=O)NC(C)C(F)(F)F)nnc9-c9cc(C(C)C)c(O)cc9O)cc8)CC7)CC6)CC5)nc4c3F)c12 (stereo not drawn) [Compound 126] the molecule record lists pEC50 as > 7.00

For C#Cc1c(F)ccc2cc(O)cc(-c3ncc4c(N5CC6CCC(C5)N6)nc(OCC5(CN6CCN(C7CN(Cc8ccc9c(c8)CN(C(=O)c8cc(C(C)C)c(O)cc8O)C9)C7)CC6)CC5)nc4c3F)c12 [Compound 177] the molecule record lists pEC50 as > 7.00
